# target_under_test: peripheral receptors for benzodiazepines ([^3 H]-PK 11195) (Rattus norvegicus, UniProt P16257);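 note: radioligand binding with bound label split from free by vacuum filtration, then quantified through liquid scintillation counting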
assay_readout: IC50

>>> result("CN1CCN(C(=O)Cn2c(=O)n3cc(-c4ccccc4)nc3c3ccccc32)CC1")
"80 µM"
>>> result("CCCN(CCC)C(=O)Cn1c(=O)n2c(C)c(-c3cccc(Cl)c3)nc2c2ccccc21")
"0.0024 µM"
>>> result("CC(C)CNC(=O)Cn1c(=O)n2cc(-c3ccccc3)nc2c2ccccc21")
"> 100 µM"
>>> result("CCN(CC)C(=O)Cn1c(=O)n2cc(C(=O)c3ccccc3)nc2c2ccccc21")
"0.22 µM"
>>> result("CCN(CC)C(=O)Cn1c(=O)n2cc(-c3ccc(Cl)cc3)nc2c2ccccc21")
"1.5 µM"
>>> result("CCOC(=O)Cn1c(=O)n2cc(-c3ccccc3)nc2c2ccccc21")
"100 µM"
>>> result("Cn1c(=O)n2cc(-c3ccccc3)nc2c2ccccc21")
"> 100 µM"
>>> result("CCOC(=O)c1cn2c(=O)[nH]c3ccccc3c2n1")
"> 100 µM"
>>> result("CC(C)NC(=O)Cn1c(=O)n2cc(-c3ccccc3)nc2c2ccccc21")
"> 100 µM"
>>> result("CCN(CC)C(=O)Cn1c(=O)n2c(CN(C)C)c(-c3ccccc3)nc2c2ccccc21")
"2.2 µM"
>>> result("CCN(CC)C(=O)Cn1c(=O)n2cc(-c3cccc(Cl)c3)nc2c2ccccc21")
"0.058 µM"
>>> result("CCN(CC)C(=O)Cn1c(=O)n2cc(-c3ccccc3)nc2c2c(Cl)cccc21")
"1.4 µM"
>>> result("O=C(Cn1c(=O)n2cc(-c3ccccc3)nc2c2ccccc21)N1CCOCC1")
"> 100 µM"
>>> result("CCOC(=O)COc1ccc2c(=O)cc(-c3ccccc3)oc2c1 [Efloxate, efloxate, reference compound]")
"20 µM"
>>> result("CCOC(=O)c1cn2c(=O)n(C)c3ccccc3c2n1")
"> 100 µM"
